Data origin: ChEMBL document CHEMBL3785004

experiment: Selectivity index, ratio of IC50 for Vero cells to IC50 for chloroquine sensitive Plasmodium falciparum D6; assay type: toxicity, cell-based; conditions: monkey, read-out: Ratio IC50
reported_property: selectivity ratio
Give the value as a plain number.

{"compound": "COC(=O)[C@@H](C)[C@H]1CC[C@](C)(CC/C=C(\\C)CCC2(O)C(C)CCCC2(C)C)OO1 (some centres not stated)", "selectivity ratio": 2}
{"compound": "CC1=C(CC/C(C)=C/CC[C@@]2(C)CC[C@H]([C@H](C)C(=O)O)OO2)C(C)(C)CCC1", "selectivity ratio": 1.4}
{"compound": "C=C1CCCC(C)(C)C1(O)CC/C(C)=C/CC[C@@]1(C)CC[C@H]([C@H](C)C(=O)O)OO1 (some centres not stated)", "selectivity ratio": 1.6}
{"compound": "C=C1CCCC(C)(C)C1(O)CC/C(C)=C/CC[C@@]1(C)CC[C@H]([C@H](C)C(=O)OC)OO1 (some centres not stated)", "selectivity ratio": 5.1}
{"compound": "COC(=O)[C@H](C)[C@H]1CC[C@@](C)(CCC2=C(C)C(=O)CCC2(C)C)OO1 [DIACARPEROXIDE A]", "selectivity ratio": 6.5}

Noted for `CC1=C(CC[C@]2(C)CC[C@H]([C@@H](C)C(=O)O)OO2)C(C)(C)CCC1` : its selectivity ratio reads 1.7

Noted for COC(=O)[C@@H](C)[C@H]1CC[C@](C)(CC/C=C(\C)CCC2(C)C(C)CCCC2(C)O)OO1 (some centres not stated) : its selectivity ratio reads 1.7

---

test system: Plasmodium falciparum; assay: Antimalarial activity against chloroquine sensitive Plasmodium falciparum D6 after 72 hrs by LDH assay; format: functional, organism-based; details: D6, 72 h
Under this convention, Yes denotes IC50 strictly below 7 µM and No denotes IC50 at or above 7 µM.

Worked set:
{"compound": "COC(=O)[C@@H](C)[C@H]1CC[C@](C)(CC/C=C(\\C)CCC2(O)C(C)CCCC2(C)C)OO1 (some centres not stated)", "class": "Yes"}
{"compound": "CC1=C(CC/C(C)=C/CC[C@@]2(C)CC[C@H]([C@H](C)C(=O)O)OO2)C(C)(C)CCC1", "class": "No"}
{"compound": "COC(=O)[C@H](C)[C@H]1CC[C@@](C)(CCC2=C(C)C(=O)CCC2(C)C)OO1 [DIACARPEROXIDE A]", "class": "Yes"}
{"compound": "C=C1CCCC(C)(C)C1(O)CC/C(C)=C/CC[C@@]1(C)CC[C@H]([C@H](C)C(=O)O)OO1 (some centres not stated)", "class": "No"}
{"compound": "CC1=C(CC[C@]2(C)CC[C@H]([C@@H](C)C(=O)O)OO2)C(C)(C)CCC1", "class": "No"}

# check: IC50 < 7 µM for COC(=O)[C@@H](C)[C@H]1CC[C@](C)(CC/C=C(\C)CCC2(C)C(C)CCCC2(C)O)OO1 (some centres not stated) Yes

# check: IC50 < 7 µM for C=C1CCCC(C)(C)C1(O)CC/C(C)=C/CC[C@@]1(C)CC[C@H]([C@H](C)C(=O)OC)OO1 (some centres not stated) Yes

---

assay: Selectivity index, ratio of IC50 for Vero cells to IC50 for chloroquine resistant Plasmodium falciparum W2; assay type: toxicity, cell-based; conditions: monkey, read-out: Ratio IC50
The threshold is inclusive: selectivity ratio of exactly 4 counts as condition met; values below receive condition not met.

Worked set:
{"compound": "COC(=O)[C@@H](C)[C@H]1CC[C@](C)(CC/C=C(\\C)CCC2(C)C(C)CCCC2(C)O)OO1 (some centres not stated)", "class": "condition not met"}
{"compound": "C=C1CCCC(C)(C)C1(O)CC/C(C)=C/CC[C@@]1(C)CC[C@H]([C@H](C)C(=O)O)OO1 (some centres not stated)", "class": "condition not met"}
{"compound": "COC(=O)[C@@H](C)[C@H]1CC[C@](C)(CC/C=C(\\C)CCC2(O)C(C)CCCC2(C)C)OO1 (some centres not stated)", "class": "condition not met"}
{"compound": "CC1=C(CC[C@]2(C)CC[C@H]([C@@H](C)C(=O)O)OO2)C(C)(C)CCC1", "class": "condition not met"}
{"compound": "C=C1CCCC(C)(C)C1(O)CC/C(C)=C/CC[C@@]1(C)CC[C@H]([C@H](C)C(=O)OC)OO1 (some centres not stated)", "class": "condition met"}

Threshold query (selectivity ratio >= 4) on `CC1=C(CC/C(C)=C/CC[C@@]2(C)CC[C@H]([C@H](C)C(=O)O)OO2)C(C)(C)CCC1` condition not met

Threshold query (selectivity ratio >= 4) on COC(=O)[C@H](C)[C@H]1CC[C@@](C)(CCC2=C(C)C(=O)CCC2(C)C)OO1 [DIACARPEROXIDE A] condition met
